system: HeLa (cervical cancer) cells; test: Cytotoxicity assay (7-AAD viability, flow cytometry), HeLa; format: cell-based, human; conditions: Homo sapiens, HeLa, mean ± SE, at least three experiments in duplicate; viable cells
Reported Property: IC50 (µM)

>  <Compound>
C[C@H]1[C@H](C)CC[C@]2(C(=O)O)CC[C@]3(C)C(=CC[C@@H]4[C@@]5(C)CC[C@H](O)C(C)(C)[C@@H]5CC[C@]43C)[C@H]12 [UA, ursolic acid, reference compound]

>  <Unit Symbol>
µM

>  <Recorded Result>
88

$$$$
>  <Compound>
CC(=O)O[C@H]1CC[C@@]2(C)C(CC[C@]3(C)C2CCC2C4C(C(C)C)CC[C@]4(C(=O)NCCCN4CCN(CCCNC(=N)N)CC4)CC[C@]23C)C1(C)C (stereo partly drawn) [Compound 13a]

>  <Unit Symbol>
µM

>  <Recorded Result>
79

$$$$
>  <Compound>
CC(=O)O[C@H]1CC[C@@]2(C)C(CC[C@]3(C)C2CCC2C4C(C(C)C)CC[C@]4(C(=O)NCCCCN)CC[C@]23C)C1(C)C (stereo partly drawn)

>  <Unit Symbol>
µM

>  <Recorded Result>
7.1

$$$$
>  <Compound>
CC(=O)O[C@H]1CC[C@@]2(C)C(CC[C@]3(C)C2CCC2C4C(C(C)C)CC[C@]4(C(=O)OCC(CO)(CO)NC(=N)N)CC[C@]23C)C1(C)C (stereo partly drawn) [Compound 15c]

>  <Unit Symbol>
µM

>  <Recorded Result>
14

$$$$
>  <Compound>
CC(=O)O[C@H]1CC[C@@]2(C)C(CC[C@]3(C)C2CCC2C4C(C(C)C)CC[C@]4(C(=O)NCCNC(=N)N)CC[C@]23C)C1(C)C (stereo partly drawn) [Compound 10b]

>  <Unit Symbol>
µM

>  <Recorded Result>
152

$$$$
>  <Compound>
CC(=O)O[C@H]1CC[C@@]2(C)C(CC[C@]3(C)C2CCC2C4C(C(C)C)CC[C@]4(C(=O)NCCCCNC(=N)N)CC[C@]23C)C1(C)C (stereo partly drawn) [Compound 11b]

>  <Unit Symbol>
µM

>  <Recorded Result>
106

$$$$

* * *

system: normal human fibroblasts; test: Cytotoxicity assay (7-AAD viability, flow cytometry), normal fibroblasts; format: cell-based; settings: Homo sapiens, Fibroblast, mean ± SE, at least three experiments in duplicate
pIC50: −log10 of the molar value.
Reported Property: pIC50

>  <Compound>
CC(C)C1CC[C@]2(C(=O)NCCCCNC(=N)N)CC[C@]3(C)C(CCC4[C@@]5(C)CCC(=O)C(C)(C)C5CC[C@]43C)C12 (stereo partly drawn) [Compound 9b]

>  <Recorded Result>
3.75

$$$$
>  <Compound>
CC1(C)CC[C@]2(C(=O)O)CC[C@]3(C)C(=CC[C@@H]4[C@@]5(C)CC[C@H](O)C(C)(C)[C@@H]5CC[C@]43C)[C@@H]2C1 [OA, oleanolic acid, reference compound]

>  <Recorded Result>
3.16

$$$$
>  <Compound>
CC(=O)O[C@H]1CC[C@@]2(C)C(CC[C@]3(C)C2CCC2C4C(C(C)C)CC[C@]4(C(=O)NCCCN4CCN(CCCNC(=N)N)CC4)CC[C@]23C)C1(C)C (stereo partly drawn) [Compound 13a]

>  <Recorded Result>
3.98

$$$$

* * *

Below, each entry is listed with its recorded IC50.
Test system: U937 (histiocytic lymphoma) cells
Experiment: Cytotoxicity assay (7-AAD viability, flow cytometry), U937
Assay type: cell-based, human
Settings: read-out: IC50 U937; mean ± SE, at least three experiments in duplicate; viable cells
Experimental: Cells (Jurkat, K562, U937, HeLa, HEK293 and normal Fibroblasts) were purchased from Russian Cell Culture Collection (Institute of Cytology of the Russian Academy of Sciences, Saint Petersburg, Russia) and cultured according to standard mammalian tissue culture protocols and sterile technique. Human cell lines HEK293 and HeLa were obtained from the HPA Culture Collections (Salisbury, UK). All cell lines used in the study were tested and shown to be free of mycoplasma and viral contamination. […]
Reported Property: IC50

>  <Compound>
CC(=O)O[C@H]1CC[C@@]2(C)C(CC[C@]3(C)C2CCC2C4C(C(C)C)CC[C@]4(C(=O)NCCN(CCNC(=N)N)CCNC(=N)N)CC[C@]23C)C1(C)C (single isomer, unassigned) [Compound 12a]

>  <Reported Property>
IC50

>  <Recorded Result>
28 µM

$$$$
>  <Compound>
CC(=O)O[C@H]1CC[C@@]2(C)C(CC[C@]3(C)C2CCC2C4C(C(C)C)CC[C@]4(C(=O)NCCN(CCNC(=N)N)CCNC(=N)N)CC[C@]23C)C1(C)C (single isomer, unassigned) [Compound 12b]

>  <Reported Property>
IC50

>  <Recorded Result>
13 µM

$$$$
